Reference for the values: patent US5451599A

Each entry below lists one item and its recorded Percentage of living cells /P %/ value.
# Tested on: Mm (Mm5MT/C1, mammary gland cancer cells of C3H-strain mice)
# Assay Protocol: 48 h incubation with the salts: cell fluorescence, living cells, multiplication coefficient (Table 3)
# Assay type: cell-based, Murine
# Details: Mm; 48 hs; 50 mcg/ml
Give your result in % as a bare value.

CC1=C(CCC(=O)O)c2cc3[nH]c(cc4nc(cc5[nH]c(cc1n2)c(C(C)NC(Cc1c[nH]c2ccccc12)C(=O)O)c5C)C(C(C)NC(Cc1c[nH]c2ccccc12)C(=O)O)=C4C)c(C)c3CCC(=O)O.N=C(N)NCCC[C@H](N)C(=O)O.N=C(N)NCCC[C@H](N)C(=O)O (stereo not drawn) :: 11

Retrieve Percentage of living cells /P %/ measured for CC1=C(CCC(=O)O)c2cc3[nH]c(cc4nc(cc5[nH]c(cc1n2)c(C(C)NC(C)C(=O)O)c5C)C(C(C)NC(C)C(=O)O)=C4C)c(C)c3CCC(=O)O.N=C(N)NCCC[C@H](N)C(=O)O.N=C(N)NCCC[C@H](N)C(=O)O (stereo not drawn) and print it.
86

Retrieve Percentage of living cells /P %/ measured for CC1=C(CCC(=O)O)c2cc3[nH]c(cc4nc(cc5[nH]c(cc1n2)c(C(C)NC(CCCCN)C(=O)O)c5C)C(C(C)NC(CCCCN)C(=O)O)=C4C)c(C)c3CCC(=O)O.N=C(N)NCCC[C@H](N)C(=O)O.N=C(N)NCCC[C@H](N)C(=O)O (stereo not drawn) [PP/Lys/2 /Arg/2, l-arginine di/N-lysyl/-protoporphyrinate] and print it.
33
